The measured values listed here are drawn from ChEMBL document CHEMBL3611999.

target-of-assay: Neuronal acetylcholine receptor; alpha4/beta2 (Homo sapiens, UniProt P17787+P43681)
Sequence (P17787 whole entry): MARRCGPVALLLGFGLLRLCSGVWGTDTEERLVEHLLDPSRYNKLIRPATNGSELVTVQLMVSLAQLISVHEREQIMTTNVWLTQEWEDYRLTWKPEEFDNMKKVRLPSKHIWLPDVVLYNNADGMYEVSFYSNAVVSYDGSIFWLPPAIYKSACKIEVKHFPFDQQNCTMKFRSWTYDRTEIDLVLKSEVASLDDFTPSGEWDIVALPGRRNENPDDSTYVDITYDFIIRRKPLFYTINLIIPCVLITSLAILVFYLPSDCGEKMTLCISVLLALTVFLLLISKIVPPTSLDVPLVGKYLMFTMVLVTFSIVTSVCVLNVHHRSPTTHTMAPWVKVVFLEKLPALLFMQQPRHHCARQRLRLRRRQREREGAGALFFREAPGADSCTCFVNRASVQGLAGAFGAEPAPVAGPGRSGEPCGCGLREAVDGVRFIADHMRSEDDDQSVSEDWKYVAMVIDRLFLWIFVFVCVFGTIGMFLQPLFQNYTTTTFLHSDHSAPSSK
Sequence (P43681 whole entry): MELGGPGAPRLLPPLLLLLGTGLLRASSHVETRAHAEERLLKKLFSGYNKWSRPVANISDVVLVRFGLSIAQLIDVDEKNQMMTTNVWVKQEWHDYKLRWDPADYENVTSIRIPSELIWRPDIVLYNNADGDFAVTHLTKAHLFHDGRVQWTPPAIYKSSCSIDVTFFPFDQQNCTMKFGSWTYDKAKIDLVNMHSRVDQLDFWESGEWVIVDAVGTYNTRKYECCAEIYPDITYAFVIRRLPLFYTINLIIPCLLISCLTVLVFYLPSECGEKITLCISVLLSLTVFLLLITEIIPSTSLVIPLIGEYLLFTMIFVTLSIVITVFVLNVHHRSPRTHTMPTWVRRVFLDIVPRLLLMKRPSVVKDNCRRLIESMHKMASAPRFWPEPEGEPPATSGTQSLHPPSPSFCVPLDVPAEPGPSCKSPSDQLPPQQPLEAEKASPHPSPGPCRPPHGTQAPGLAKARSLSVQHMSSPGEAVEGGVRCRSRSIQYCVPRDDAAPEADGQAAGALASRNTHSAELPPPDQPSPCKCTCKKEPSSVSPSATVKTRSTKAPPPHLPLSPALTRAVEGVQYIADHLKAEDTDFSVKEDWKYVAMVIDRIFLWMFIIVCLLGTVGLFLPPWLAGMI
test-protocol: Antagonist activity at human alpha4beta2 nAChR expressed in HEK293 cells assessed as inhibition of acetylcholine-induced inward current at holding potential of -70 mV by patch clamp technique
pIC50: −log10 of the molar value.
Here, each record is paired with measured pIC50 data.
quantity: pIC50

>>> readout_value("CCCCC[n+]1cccc([C@@H]2CCCN2C)c1")
7.05
>>> readout_value("CCCCCCCCCC[n+]1cccc([C@@H]2CCCN2C)c1")
6.70
>>> readout_value("CCCCCC[n+]1cccc([C@@H]2CCCN2C)c1")
6.52
>>> readout_value("CN1CCC[C@H]1c1ccc[n+](CCCCCCNCC2CCc3ccc(O)cc3O2)c1 (mixture of isomers)")
6.10
>>> readout_value("CN1CCC[C@H]1c1ccc[n+](CCCCCNCC2CCc3ccc(O)cc3O2)c1 (mixture of isomers)")
6.70
>>> readout_value("CN1CCC[C@H]1c1ccc[n+](CCCCCCCCCCNCC2CCc3ccc(O)cc3O2)c1 (mixture of isomers)")
7.00

* * *

target-of-assay: Neuronal acetylcholine receptor; alpha4/beta2 (Homo sapiens, UniProt P17787+P43681)
test-protocol: Binding affinity to alpha4beta2 nAChR (unknown origin)
quantity: Ki (nM)

>>> readout_value("CCCCCCCCCCCC[n+]1cccc([C@@H]2CCCN2C)c1")
0.14
>>> readout_value("CCCCCCCCCC[n+]1cccc([C@@H]2CCCN2C)c1")
0.09

* * *

Here, each record is paired with measured Ki data.
target-of-assay: D(2) dopamine receptor (Rattus norvegicus, UniProt P61169)
Sequence (P61169 whole entry): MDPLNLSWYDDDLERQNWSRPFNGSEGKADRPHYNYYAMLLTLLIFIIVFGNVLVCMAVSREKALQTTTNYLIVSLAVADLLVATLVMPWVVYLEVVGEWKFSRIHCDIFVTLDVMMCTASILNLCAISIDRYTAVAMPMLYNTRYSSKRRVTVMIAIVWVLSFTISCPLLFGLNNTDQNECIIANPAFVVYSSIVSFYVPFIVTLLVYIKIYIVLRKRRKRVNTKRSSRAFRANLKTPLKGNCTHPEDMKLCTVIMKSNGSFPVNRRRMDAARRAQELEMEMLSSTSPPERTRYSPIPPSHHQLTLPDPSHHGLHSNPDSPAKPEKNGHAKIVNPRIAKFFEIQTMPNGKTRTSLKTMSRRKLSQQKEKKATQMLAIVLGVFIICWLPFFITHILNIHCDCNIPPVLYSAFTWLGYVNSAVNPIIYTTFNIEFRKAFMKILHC
test-protocol: Displacement of [3H]raclopride from dopamine D2 receptor in Sprague-Dawley rat striatal membranes after 30 mins
Design: species or system Sprangue-Dawley, Striatum, Membrane
quantity: Ki (µM)

>>> readout_value("CN1CCC[C@H]1c1ccc[n+](CCCCCNCC2CCc3ccc(O)cc3O2)c1 (mixture of isomers)")
0.12
>>> readout_value("CN1CCC[C@H]1c1ccc[n+](CCCCCCCCCCNCC2CCc3ccc(O)cc3O2)c1 (mixture of isomers)")
0.014
>>> readout_value("CN1CCC[C@H]1c1ccc[n+](CCCCCCNCC2CCc3ccc(O)cc3O2)c1 (mixture of isomers)")
0.097
>>> readout_value("CN1CCC[C@H]1c1ccc[n+](CCCCCCCCCCCCNCC2CCc3ccc(O)cc3O2)c1 (mixture of isomers)")
0.02

* * *

target-of-assay: Neuronal acetylcholine receptor; alpha4/beta2 (Homo sapiens, UniProt P17787+P43681)
test-protocol: Partial agonist activity at human alpha4beta2 nAChR expressed in HEK293 cells assessed as inward current at holding potential of -70 mV by patch clamp technique relative to acetylcholine
Type: cell-based
Design: concentration or dose not given beside the values
Here, each record is paired with measured Activity data.
quantity: Activity (%)

>>> readout_value("CCCCCC[n+]1cccc([C@@H]2CCCN2C)c1")
18
>>> readout_value("CN1CCC[C@H]1c1ccc[n+](CCCCCCCCCCCCNCC2CCc3ccc(O)cc3O2)c1 (mixture of isomers)")
8.3
>>> readout_value("CN1CCC[C@H]1c1ccc[n+](CCCCCCNCC2CCc3ccc(O)cc3O2)c1 (mixture of isomers)")
15
>>> readout_value("CN1CCC[C@H]1c1ccc[n+](CCCCCNCC2CCc3ccc(O)cc3O2)c1 (mixture of isomers)")
13
>>> readout_value("CN1CCC[C@H]1c1ccc[n+](CCCCCCCCCCNCC2CCc3ccc(O)cc3O2)c1 (mixture of isomers)")
4
>>> readout_value("CCCCCCCCCC[n+]1cccc([C@@H]2CCCN2C)c1")
1.3
>>> readout_value("CCCCC[n+]1cccc([C@@H]2CCCN2C)c1")
27
>>> readout_value("CCCCCCCCCCCC[n+]1cccc([C@@H]2CCCN2C)c1")
9
